experimentNotes: soluble fraction after stress (log2 fold change); higher = more stays soluble; pooled small domains, quantitative proteomics;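 also: 20 min heating vs room temperature control held 20 min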
reportedConditions: stress: 75 degC
readoutName: soluble fraction (log2)

1. HMFTSVDVAPDLRTAKVFYSVLGRKKSDKEINIAINQKRKAFKKFMGPELHLKNIPDLHFYYD    -0.369
2. HMKNHIEERRKARGMTQQQLASELGVSRQTIISLENGKYNPSILLAHSIARLFGERIEDIFILR    -2.45
3. HMERFRQVNAGMTRDDIYQLLGKPTEKTPFPLKNEEVWSWRHQADGQTVALFNIHLDPDGRVTTTSQSMDL    0.739
4. HMSREEFLTELRKALQGRVSQQTVNDNLRYYEEYILTESHKGKTEAEVIAELGNPRLLAKSIIDAENAT    0.0701
